tgt: hMAO-B (Homo sapiens, UniProt P27338)
Construct: purchased Sigma-Aldrich
Sequence (P27338 whole entry): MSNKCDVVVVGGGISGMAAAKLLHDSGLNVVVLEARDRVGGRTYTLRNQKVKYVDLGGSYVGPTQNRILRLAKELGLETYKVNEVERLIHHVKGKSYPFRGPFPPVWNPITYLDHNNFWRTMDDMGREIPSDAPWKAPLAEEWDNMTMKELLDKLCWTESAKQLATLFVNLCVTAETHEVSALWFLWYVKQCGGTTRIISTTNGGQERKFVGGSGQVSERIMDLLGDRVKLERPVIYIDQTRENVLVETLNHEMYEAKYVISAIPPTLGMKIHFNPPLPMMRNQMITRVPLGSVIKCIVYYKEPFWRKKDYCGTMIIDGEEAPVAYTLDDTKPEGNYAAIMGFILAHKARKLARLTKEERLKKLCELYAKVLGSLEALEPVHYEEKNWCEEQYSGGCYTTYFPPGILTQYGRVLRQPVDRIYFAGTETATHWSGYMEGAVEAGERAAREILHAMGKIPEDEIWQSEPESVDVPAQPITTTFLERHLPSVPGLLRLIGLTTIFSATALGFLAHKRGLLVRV
assay-method-text: biochemical
Format: biochemical
condition: read-out: Residual Activity at 10 µM (%) hMAO-B
# note: exactly 60% is not below, so it is not fulfilled; use fulfilled for remaining activity at 10 µM strictly under it

Exercise: Is it true that remaining activity at 10 µM reported for COc1cc2c(cc1O[C@@H]1O[C@H](CO)[C@@H](O)[C@H](O)[C@H]1O)O[C@H](c1ccccc1)[C@@H](O)C2=O [Compound 2] is less than 60%?
Key: not fulfilled

Exercise: Is it true that remaining activity at 10 µM reported for COc1ccc(-c2coc3cc(OC)ccc3c2=O)cc1 [Compound 11, 7,4′-dimethoxyisoflavone] is less than 60%?
Key: not fulfilled

Exercise: Is it true that remaining activity at 10 µM reported for COc1cc([C@H]2OC[C@H]3[C@@H]2CO[C@@H]3c2cc(OC)c(O[C@@H]3O[C@H](CO)[C@@H](O)[C@H](O)[C@H]3O)c(OC)c2)cc(OC)c1O [Compound 3] is less than 60%?
Key: not fulfilled

Exercise: Is it true that remaining activity at 10 µM reported for COc1cc([C@H]2OC[C@H]3[C@@H]2CO[C@@H]3c2cc(OC)c(O)c(OC)c2)cc(OC)c1O [Compound 5, (+)-syringaresinol] is less than 60%?
Key: not fulfilled

Exercise: Is it true that remaining activity at 10 µM reported for COc1ccc(-c2coc3cc(O[C@@H]4O[C@H](CO)[C@@H](O)[C@H](O)[C@H]4O)ccc3c2=O)cc1 [Compound 4, ononin] is less than 60%?
Key: not fulfilled

Exercise: Is it true that remaining activity at 10 µM reported for COc1cc(O)c2c(=O)c(-c3ccc(O)cc3)coc2c1 [Compound 9, prunetin] is less than 60%?
Key: fulfilled

Exercise: Is it true that remaining activity at 10 µM reported for COc1ccc2c(c1)OC[C@H]1c3cc4c(cc3O[C@@H]21)OCO4 [Compound 12, 3-methoxy-8,9-methylenedioxypterocarpan] is less than 60%?
Key: fulfilled

Exercise: Is it true that remaining activity at 10 µM reported for COc1cc(O)c2c(=O)c(-c3ccc(O)cc3O)coc2c1 [Compound 7, cajanin] is less than 60%?
Key: fulfilled

Exercise: Is it true that remaining activity at 10 µM reported for C[C@@H]1O[C@@H](OC[C@H]2O[C@@H](Oc3c(-c4ccc(O)c(O)c4)oc4cc(O)cc(O)c4c3=O)[C@H](O)[C@@H](O)[C@@H]2O)[C@H](O)[C@H](O)[C@H]1O [Compound 1, rutin] is less than 60%?
Key: not fulfilled

Exercise: Is it true that remaining activity at 10 µM reported for COc1ccc2c(c1)OC1c3ccc(O)cc3OCC21 (stereo not shown) [Compound 8, 3-hydroxy-9-methoxypterocarpan] is less than 60%?
Key: fulfilled

Exercise: Is it true that remaining activity at 10 µM reported for COc1cc2c(cc1O)O[C@H](c1ccccc1)[C@@H](O)C2=O [Compound 6, (2R,3R)-3,7-dihydroxy-6-methoxyflavanone] is less than 60%?
Key: not fulfilled

Exercise: Is it true that remaining activity at 10 µM reported for COc1cc(O)c2c(=O)c(-c3ccc(OC)c(O)c3)coc2c1 [Compound 10, 7,4′-dimethyl-3′-hydroxygenistein] is less than 60%?
Key: fulfilled

Exercise: Is it true that remaining activity at 10 µM reported for COc1ccc2c(c1)O[C@H]1c3ccc(OC)cc3OC[C@@H]21 [Compound 13, 3,9-dimethoxypterocarpan] is less than 60%?
Key: fulfilled

###

tgt: hMAO-A (Homo sapiens, UniProt P21397)
Construct: purchased Sigma-Aldrich
Sequence (P21397 whole entry): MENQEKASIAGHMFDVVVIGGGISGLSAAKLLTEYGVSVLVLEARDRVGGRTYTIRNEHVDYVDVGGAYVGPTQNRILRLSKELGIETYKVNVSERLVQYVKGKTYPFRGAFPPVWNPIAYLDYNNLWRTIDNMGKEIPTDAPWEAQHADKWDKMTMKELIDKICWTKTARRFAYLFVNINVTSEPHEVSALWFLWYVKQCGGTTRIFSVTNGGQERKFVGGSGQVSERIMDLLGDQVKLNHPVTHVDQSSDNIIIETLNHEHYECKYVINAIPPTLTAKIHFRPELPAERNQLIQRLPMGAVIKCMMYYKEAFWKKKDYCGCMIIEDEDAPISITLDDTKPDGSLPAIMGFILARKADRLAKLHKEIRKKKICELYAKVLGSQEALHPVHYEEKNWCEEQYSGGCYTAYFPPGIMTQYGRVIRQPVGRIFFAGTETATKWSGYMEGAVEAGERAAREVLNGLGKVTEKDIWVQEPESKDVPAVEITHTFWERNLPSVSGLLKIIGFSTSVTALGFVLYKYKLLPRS
assay-method-text: biochemical
condition: read-out: Residual Activity at 10 µM (%) hMAO-A
readout-label: remaining activity at 10 µM

Exercise: # query: remaining activity at 10 µM of entry COc1ccc2c(c1)OC1c3ccc(O)cc3OCC21 (stereo not shown) [Compound 8, 3-hydroxy-9-methoxypterocarpan]
Key: 64.2%

Exercise: # query: remaining activity at 10 µM of entry COc1cc([C@H]2OC[C@H]3[C@@H]2CO[C@@H]3c2cc(OC)c(O)c(OC)c2)cc(OC)c1O [Compound 5, (+)-syringaresinol]
Key: 80.4%

Exercise: # query: remaining activity at 10 µM of entry COc1cc(O)c2c(=O)c(-c3ccc(O)cc3O)coc2c1
Key: 56.9%

Exercise: # query: remaining activity at 10 µM of entry COc1ccc(-c2coc3cc(OC)ccc3c2=O)cc1
Key: 49.1%

###

tgt: BChE (Equus caballus, UniProt P81908)
Construct: BChE from equine serum; purchased Sigma-Aldrich; host or cells: equine serum
Sequence (P81908 whole entry): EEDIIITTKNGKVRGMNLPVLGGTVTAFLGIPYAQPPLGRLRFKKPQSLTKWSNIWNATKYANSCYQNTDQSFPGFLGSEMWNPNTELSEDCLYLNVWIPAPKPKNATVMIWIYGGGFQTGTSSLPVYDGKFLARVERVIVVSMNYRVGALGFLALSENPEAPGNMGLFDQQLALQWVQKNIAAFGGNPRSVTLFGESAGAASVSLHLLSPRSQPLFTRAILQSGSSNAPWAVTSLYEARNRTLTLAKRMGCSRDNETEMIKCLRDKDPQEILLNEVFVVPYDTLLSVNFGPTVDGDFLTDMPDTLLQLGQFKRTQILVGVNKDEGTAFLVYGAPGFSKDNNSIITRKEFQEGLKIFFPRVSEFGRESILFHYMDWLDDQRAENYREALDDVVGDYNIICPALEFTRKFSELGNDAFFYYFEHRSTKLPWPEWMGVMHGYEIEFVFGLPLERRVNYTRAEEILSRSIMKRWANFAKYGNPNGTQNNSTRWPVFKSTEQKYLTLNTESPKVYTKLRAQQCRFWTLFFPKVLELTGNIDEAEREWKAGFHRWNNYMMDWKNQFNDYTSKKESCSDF
assay-method-text: BChE inhibition (Ellman method)
Assay type: biochemical, equine
condition: read-out: Residual Activity at 10 µM (%) BChE
Please provide measured remaining activity at 10 µM for the entries that follow.
Provide only the numeric value, understood in %.

Exercise: # query: remaining activity at 10 µM of entry COc1cc([C@H]2OC[C@H]3[C@@H]2CO[C@@H]3c2cc(OC)c(O[C@@H]3O[C@H](CO)[C@@H](O)[C@H](O)[C@H]3O)c(OC)c2)cc(OC)c1O
Key: 98.9

Exercise: # query: remaining activity at 10 µM of entry C[C@@H]1O[C@@H](OC[C@H]2O[C@@H](Oc3c(-c4ccc(O)c(O)c4)oc4cc(O)cc(O)c4c3=O)[C@H](O)[C@@H](O)[C@@H]2O)[C@H](O)[C@H](O)[C@H]1O
Key: 99.2

Exercise: # query: remaining activity at 10 µM of entry COc1cc(O)c2c(=O)c(-c3ccc(O)cc3)coc2c1
Key: 93

Exercise: # query: remaining activity at 10 µM of entry COc1ccc(-c2coc3cc(O[C@@H]4O[C@H](CO)[C@@H](O)[C@H](O)[C@H]4O)ccc3c2=O)cc1
Key: 96.7

Exercise: # query: remaining activity at 10 µM of entry COc1ccc2c(c1)OC1c3ccc(O)cc3OCC21 (centres unmarked) [Compound 8, 3-hydroxy-9-methoxypterocarpan]
Key: 98.4

Exercise: # query: remaining activity at 10 µM of entry COc1ccc(-c2coc3cc(OC)ccc3c2=O)cc1
Key: 98.7

Exercise: # query: remaining activity at 10 µM of entry COc1cc2c(cc1O)O[C@H](c1ccccc1)[C@@H](O)C2=O [Compound 6, (2R,3R)-3,7-dihydroxy-6-methoxyflavanone]
Key: 91.8

Exercise: # query: remaining activity at 10 µM of entry COc1ccc2c(c1)OC[C@H]1c3cc4c(cc3O[C@@H]21)OCO4
Key: 93.6

Exercise: # query: remaining activity at 10 µM of entry COc1cc(O)c2c(=O)c(-c3ccc(OC)c(O)c3)coc2c1 [Compound 10, 7,4′-dimethyl-3′-hydroxygenistein]
Key: 98.1

Exercise: # query: remaining activity at 10 µM of entry COc1ccc2c(c1)O[C@H]1c3ccc(OC)cc3OC[C@@H]21
Key: 88.5

Exercise: # query: remaining activity at 10 µM of entry COc1cc(O)c2c(=O)c(-c3ccc(O)cc3O)coc2c1
Key: 86.9

###

Please provide measured pIC50 for the entries that follow.
tgt: hMAO-B (Homo sapiens)
Construct: purchased Sigma-Aldrich
assay-method-text: biochemical
Assay type: biochemical
Hey, just a heads up that pIC50 is the negative log base 10 of the concentration in molar.

Exercise: # query: pIC50 of entry COc1cc(O)c2c(=O)c(-c3ccc(O)cc3O)coc2c1 [Compound 7, cajanin]
Key: 5.29

Exercise: # query: pIC50 of entry COc1ccc2c(c1)O[C@H]1c3ccc(OC)cc3OC[C@@H]21 [Compound 13, 3,9-dimethoxypterocarpan]
Key: 6.14

Exercise: # query: pIC50 of entry COc1ccc(-c2coc3cc(O[C@@H]4O[C@H](CO)[C@@H](O)[C@H](O)[C@H]4O)ccc3c2=O)cc1 [Compound 4, ononin]
Key: 4.55

###

tgt: BACE1 (Homo sapiens, UniProt P56817)
Construct: purchased Sigma-Aldrich
Sequence (P56817 46-501): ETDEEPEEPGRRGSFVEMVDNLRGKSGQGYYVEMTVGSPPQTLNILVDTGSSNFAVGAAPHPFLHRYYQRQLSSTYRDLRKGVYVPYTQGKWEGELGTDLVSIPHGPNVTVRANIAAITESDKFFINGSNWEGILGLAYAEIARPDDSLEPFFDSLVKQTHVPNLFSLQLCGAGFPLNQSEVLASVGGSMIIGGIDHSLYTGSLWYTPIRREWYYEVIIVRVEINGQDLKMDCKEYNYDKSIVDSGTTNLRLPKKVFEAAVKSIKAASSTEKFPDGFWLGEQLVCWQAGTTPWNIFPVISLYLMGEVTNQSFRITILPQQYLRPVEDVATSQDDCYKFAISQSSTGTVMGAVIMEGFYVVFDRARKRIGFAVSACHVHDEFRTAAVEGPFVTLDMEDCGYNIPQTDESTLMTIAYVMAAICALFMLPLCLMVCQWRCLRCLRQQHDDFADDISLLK
assay-method-text: BACE1 inhibition (fluorescent activity detection kit)
Type: biochemical
condition: read-out: Residual Activity at 10 µM (%) BACE1
readout-label: remaining activity at 10 µM (%)
Provide only the numeric value, understood in %.

Exercise: # query: remaining activity at 10 µM of entry COc1cc(O)c2c(=O)c(-c3ccc(O)cc3O)coc2c1
Key: 83.2

Exercise: # query: remaining activity at 10 µM of entry COc1cc([C@H]2OC[C@H]3[C@@H]2CO[C@@H]3c2cc(OC)c(O[C@@H]3O[C@H](CO)[C@@H](O)[C@H](O)[C@H]3O)c(OC)c2)cc(OC)c1O
Key: 76.7

Exercise: # query: remaining activity at 10 µM of entry C[C@@H]1O[C@@H](OC[C@H]2O[C@@H](Oc3c(-c4ccc(O)c(O)c4)oc4cc(O)cc(O)c4c3=O)[C@H](O)[C@@H](O)[C@@H]2O)[C@H](O)[C@H](O)[C@H]1O
Key: 82.6

Exercise: # query: remaining activity at 10 µM of entry COc1ccc(-c2coc3cc(O[C@@H]4O[C@H](CO)[C@@H](O)[C@H](O)[C@H]4O)ccc3c2=O)cc1
Key: 85.9
